TEST SUMMARY: clinical
CONDITION LABEL: human, in vivo, Dominant half-life, humans
MEASURE NAME: half-life

{"MOLECULAR STRING": "O=C(O)[C@@H](c1ccc(OCc2ccc3ccccc3n2)cc1)C1CCCC1", "MEASURED VALUE": "2.5 to 3 h"}

* * *

TEST SUMMARY: clinical
CONDITION LABEL: human, in vivo, Slower half-life, fraction of the dose with slower elimination

{"COMPOUND": "O=C(O)[C@@H](c1ccc(OCc2ccc3ccccc3n2)cc1)C1CCCC1 [DG-031]", "half-life": "10 to 15 h"}
